Measured values drawn from patent US9499529B2 for this set.

system: HeLa cervical cancer cells; experiment: HeLa cell viability after treatment with analog (cell count, cell viability analyzer); assay type: cell-based, human; conditions: 1 μM, three days, relative to DMSO vehicle
# label = true if HeLa Cell viability after treatment with analog (% viability) < 70% else false

INPUT: Answer whether the molecule Cn1nccc1/C=C/C(=O)/C=C/c1ccnn1C has HeLa Cell viability after treatment with analog (% viability) strictly less than 70%
OUTPUT: true

INPUT: Identify whether the molecule Cc1nc(C=C2CN(C)CC(=Cc3coc(C)n3)C2=O)co1 records HeLa Cell viability after treatment with analog (% viability) below 70%.
OUTPUT: true

INPUT: HeLa Cell viability after treatment with analog (% viability) under 70%? Item: O=C(/C=C/c1cocn1)/C=C/c1cocn1
OUTPUT: false

INPUT: HeLa Cell viability after treatment with analog (% viability) strictly < 70% for this molecule? Cc1cc(C=C2CCCC(=Cc3cc(C)no3)C2=O)on1
OUTPUT: false

INPUT: Decide: HeLa Cell viability after treatment with analog (% viability) of CN1CC(=Cc2nccs2)C(=O)C(=Cc2nccs2)C1 strictly below 70%?
OUTPUT: true

INPUT: Below 70% on HeLa Cell viability after treatment with analog (% viability)? Entry Cc1noc(C)c1/C=C/C(=O)/C=C/c1c(C)noc1C
OUTPUT: true

INPUT: Answer whether the molecule Cn1cc(/C=C/C(=O)/C=C/c2cnn(C)c2)cn1 has HeLa Cell viability after treatment with analog (% viability) strictly less than 70%
OUTPUT: false

INPUT: Here's an entry: CC(C)n1ccnc1/C=C/C(=O)/C=C/c1nccn1C(C)C . Is its HeLa Cell viability after treatment with analog (% viability) below 70%?
OUTPUT: true

INPUT: Take the molecule CCCC(C)n1ccnc1/C=C/C(=O)/C=C/c1nccn1C(C)CCC (stereo not shown) and say whether its HeLa Cell viability after treatment with analog (% viability) is less than 70%.
OUTPUT: true
